Tested on: CDK4-cyclinD3;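 further: KINOMEscan kinase panel screen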
Settings: concentration: 1 μM, replicates: in singlicate; n = 1
Listing: %Inh of selected compounds
Metric: %Inh (%)

>>> readout_number("COc1cccc(C2=C(Nc3cc(Cl)c(O)c(Cl)c3)C(=O)NC2=O)c1")
0
>>> readout_number("COC(=O)C(NC(=O)NC1CCN(c2ccnc(Nc3ccc(F)cc3)n2)C1)c1ccccc1 (stereo not drawn)")
4
>>> readout_number("COc1ccc(-c2coc3ccc(-c4nnc(C)o4)cc23)cc1")
0
>>> readout_number("Cc1c(Cn2c(C)c(C)n3c(=O)cc(N4CCOCC4)nc23)cccc1C(F)(F)F")
0
>>> readout_number("Cc1ccccc1-c1cc(-c2c[nH]nc2-c2ccccn2)ccn1")
0
>>> readout_number("CC(=O)c1c(C)c2cnc(Nc3ccn(C)n3)nc2n(C2CCCC2)c1=O")
98.4
>>> readout_number("Cn1cnc2c(N)ncnc21")
0
>>> readout_number("Cc1c(Cn2c3ccccc3n3c(=O)cc(N4CCOCC4)nc23)cccc1C(F)(F)F")
0
>>> readout_number("COc1nccc(-c2c(-c3ccc(F)cc3)ncn2CCCN2CCOCC2)n1")
15
>>> readout_number("O=C1NC(=O)C(c2ccc(Cl)cc2)=C1Nc1ccc(O)cc1")
0
>>> readout_number("CC(=O)c1c(C)c2cnc(Nc3ccc(N4CCNCC4)cn3)nc2n(C2CCCC2)c1=O")
98.5
>>> readout_number("COC(=O)c1cccc(NC(=O)NC2CCN(c3ccnc(Nc4ccc(F)cc4)n3)C2)c1 (stereo not drawn)")
0
>>> readout_number("Cc1ccc(-c2nc(Nc3ccncc3)c3ccccc3n2)s1")
0
>>> readout_number("Cc1ccc(NC(=O)Nc2ccccc2)cc1-c1ccc(C(=O)Nc2ccncc2)cc1")
0
>>> readout_number("CNC(=O)c1ccc(C)c(-n2c(C)cc(OCc3ccc(F)cc3F)c(Br)c2=O)c1")
0
>>> readout_number("COc1ccc(CSc2nnc(-c3ccc4nccn4c3)o2)cc1C(F)(F)F")
13
>>> readout_number("COc1ccc(CSc2nnc(-c3ccc4ncsc4c3)o2)cc1C(F)(F)F")
0
>>> readout_number("Fc1ccc(-c2nc[nH]c2-c2ccncc2)cc1")
0
>>> readout_number("Cn1cncc1-c1cc2c(Nc3ccc(OCc4ccccc4)cc3)ncnc2cn1")
4
>>> readout_number("Nc1nccc(-c2c(-c3ccc(F)cc3)ncn2C2CCN(Cc3ccccc3)CC2)n1")
0
>>> readout_number("O=c1cc(N2CCOCC2)nc2n(Cc3cccc(Cl)c3Cl)c3ccccc3n12")
0
>>> readout_number("COC(=O)c1cccc(NC(=O)NC2CCN(c3ccnc(Nc4ccc(OC)cc4)n3)C2)c1 (stereo not drawn)")
0
>>> readout_number("CNCc1ccc2nc(NC(=O)c3ccc(C(C)(C)C)cc3)cn2c1")
0
>>> readout_number("COc1ccc2cc(-c3nc(-c4ccccc4C(C)C)[nH]c3-c3ccncc3)ccc2c1")
19
>>> readout_number("O=C(Nc1n[nH]c2cc(-c3ccsc3)ccc12)C1CC1")
0
>>> readout_number("c1ccc(-c2ccnc3[nH]ccc23)cc1")
19
>>> readout_number("COc1ccc(CSc2nnc(-c3ccc4c(c3)CCO4)o2)cc1")
0
>>> readout_number("CNc1cc(-c2ccc3c(N)n[nH]c3c2)nc(N)n1")
0
>>> readout_number("COC(=O)C(Cc1ccccc1)NC(=O)NC1CCN(c2ccnc(Nc3ccc(F)cc3)n2)C1 (stereo not drawn)")
0
>>> readout_number("COc1ccc(Nc2nccc(N3CCC(NC(=O)C(C)c4ccc(Cl)cc4)CC3)n2)cc1 (stereo not drawn)")
0
>>> readout_number("CC[C@@H]1CO[C@H](C(=O)Nc2ccccc2)CN1c1cc(-c2ccc3c(N)n[nH]c3c2)nc(NC)n1")
5
>>> readout_number("COc1cccc(CNC(=O)NC2CCN(c3ccnc(Nc4ccc(F)cc4)n3)C2)c1 (stereo not drawn)")
15
>>> readout_number("CCn1c(-c2c(N)noc2C)nc2cnccc21")
9
>>> readout_number("CS(=O)(=O)CCNCc1nc(-c2ccc3ncnc(Nc4ccc5c(cnn5Cc5ccccc5)c4)c3c2)cs1.Cl.Cl")
0
>>> readout_number("COc1cccc(NC(=O)Nc2ccc(C)c(-c3ccc(C(=O)Nc4ccncc4)cc3)c2)c1")
0
>>> readout_number("O=C(Nc1n[nH]c2nc(-c3ccco3)c(Br)cc12)C1CCN(Cc2ccccc2)C1.O=C(O)[C@H](O)[C@@H](O)C(=O)O (stereo not drawn)")
0

Values were extracted from paper PMC5540273.
